Catalogue of binders with associated inhibition of uptake of monomeric tau into human iPSC-derived astrocytes
- TARGET OR TEST SYSTEM: full length pHrodo-labelled monomeric (P301S) 2N4R tau (human, UniProt P10636 1-758, labelled with pHrodo Red Maleimide); further: test concentration or dose not given here
- Sequence (P10636 other isoform, or with tags, fused parts or gaps P301S P301S): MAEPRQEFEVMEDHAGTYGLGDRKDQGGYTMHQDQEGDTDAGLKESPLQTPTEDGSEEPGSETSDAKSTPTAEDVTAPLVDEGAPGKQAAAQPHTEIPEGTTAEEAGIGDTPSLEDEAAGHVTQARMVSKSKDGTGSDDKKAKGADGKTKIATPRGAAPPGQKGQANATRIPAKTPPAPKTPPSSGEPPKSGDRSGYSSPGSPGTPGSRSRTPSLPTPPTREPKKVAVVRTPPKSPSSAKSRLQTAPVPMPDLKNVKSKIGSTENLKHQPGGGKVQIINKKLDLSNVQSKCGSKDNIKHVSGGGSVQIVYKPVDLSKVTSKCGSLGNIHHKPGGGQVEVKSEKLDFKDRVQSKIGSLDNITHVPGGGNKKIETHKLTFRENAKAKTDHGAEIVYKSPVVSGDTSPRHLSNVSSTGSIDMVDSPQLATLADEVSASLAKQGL
- TEST DETAILS: cell-based or functional assay
Please give a number only; it is taken to be in % inhibition.

Clone 24 (VH3Vκ4), humanised variant of clone #28, human IgG1 (antibody, V domains shown, also called VH3VK4; VH3Vk4) VH: QVQLQESGPGLVKPSETLSLTCTVSGFSLNNYDMSWVRQAPGKGLEWIGTVSTTYRRYYASWAKGRFTISKTSSTTVDLQMTSLTAEDTATYFCAASGIWGRGTLVTVSS VL: DIQMTQSPSTLSASVGDRVTITCQSSQRVYSNYLAWYQQKPGQPPKRLIFLASTLESGVPSRFSGSGSGTEFTLTISSLQPDDFATYYCAGTYTGSIWAFGGGTKVEIK ... 31.5
Clone 32 (VH5Vκ4), humanised variant of clone #28, human IgG1 (antibody, V domains shown, also called VH5VK4; VH5Vk4) VH: QVQLQESGPGLVKPSETLSLTCTVSGFSLNNYDMSWVRQAPGKGLEWIGTVSTTYRRYYASWAKGRFTISRDNSKNTLDLQMTSLTAEDTATYFCAASGIWGRGTLVTVSS VL: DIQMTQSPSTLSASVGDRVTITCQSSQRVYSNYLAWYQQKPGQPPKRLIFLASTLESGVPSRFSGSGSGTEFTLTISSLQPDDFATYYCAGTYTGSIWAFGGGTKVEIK ... 45.7
Clone 31 (VH5Vκ2), humanised variant of clone #28, human IgG1 (antibody, V domains shown, also called VH5VK2; VH5Vk2) VH: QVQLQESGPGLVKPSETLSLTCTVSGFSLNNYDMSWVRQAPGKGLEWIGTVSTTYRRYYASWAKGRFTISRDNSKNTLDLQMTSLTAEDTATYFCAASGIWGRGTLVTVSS VL: AQVLTQSPSTLSASVGDRVTITCQSSQRVYSNYLAWYQQKPGQPPKRLIFLASTLESGVPSRFSGSGSGTEFTLTISSLQPDDFATYYCAGTYTGSIWAFGGGTKVEIK ... 26.7

Now, please, on to the next binder.
Input: Record request: inhibition of uptake of monomeric tau into human iPSC-derived astrocytes value, item Clone 28 (VH4Vκ4), humanised variant of clone #28, human IgG1 (antibody, V domains shown, also called VH4VK4; VH4Vk4) VH: QVQLQESGPGLVKPSETLSLTCTVSGFSLNNYDMSWVRQAPGKGLEWIGTVSTTYRRYYASWAKGRFTISKDTSSTTVDLQMTSLTAEDTATYFCAASGIWGRGTLVTVSS VL: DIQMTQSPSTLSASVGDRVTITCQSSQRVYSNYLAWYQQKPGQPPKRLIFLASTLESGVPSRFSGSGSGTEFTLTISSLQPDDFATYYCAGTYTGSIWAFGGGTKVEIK
Output: 42
